system: NCI-H23; test: NCI tumour cell line growth inhibition, 48 h
Active and inactive are the calls of the source. No stated cut-off is given here; in the data, active = GI50 up to about 1.1 µM and inactive = higher.
Reported property: GI50

INSERT INTO results (compound, result) VALUES
  ('O=C1/C(=C\c2ccc(-c3ccc(Cl)cc3Cl)o2)SC2NC(COc3ccc(Cl)cc3)=NN12 (centres undefined)', '53.2 µM (inactive)'),
  ('C[n+]1c2ccccc2cc2c(CNC(CCCNC(=N)N)C(=O)O)cccc21 (centres undefined)', '3.14 µM (inactive)'),
  ('C=C=C(CC)C(C(=O)OC)N(CC)CC (centres undefined)', '> 100 µM (inactive)'),
  ('CNC(=O)OCC1=C(COC(=O)NC)CN(c2ccc(OC)cc2)C1', '> 100 µM (inactive)'),
  ('CC(C)(C)c1ccc2c(c1)C(O)(c1ccccc1)c1cc(C(C)(C)C)ccc1C2(O)C(F)(F)F (centres undefined)', '1.81 µM (inactive)'),
  ('CCCNC(=O)Cn1c(-c2ccccc2)cc2ccccc21', '48 µM (inactive)'),
  ('CC1=C(C(=O)Nc2cc(=O)n(C)c(=O)n2C)C(c2ccco2)C(C(=O)Nc2cc(=O)n(C)c(=O)n2C)=C(C)N1', '> 100 µM (inactive)'),
  ('Cc1ccc(C(=O)C#Cc2cn(C3CC(O)C(CO)O3)c(=O)[nH]c2=O)cc1 (centres undefined)', '> 100 µM (inactive)'),
  ('COc1cc(CCN)c(OC)c(OC)c1', '> 100 µM (inactive)'),
  ('CNC(=O)OC(C)CN1c2ccccc2Sc2ccc(Cl)cc21 (centres undefined)', '> 10 µM (inactive)'),
  ('CC12CCCC3(CC(=O)C(C)(C)C3C(=O)C1)C2 (centres undefined)', '> 100 µM (inactive)'),
  ('Cc1ccc2nc(-c3nccn3C)cc(C(=O)NC(C)CN(C)C)c2c1 (centres undefined)', '> 100 µM (inactive)'),
  ('C[C@]12CC[C@H]3[C@@H](CC=C4C[C@@H](O)CC[C@@]43C)[C@@H]1C[C@H](N1CCOCC1)[C@@H]2O', '> 100 µM (inactive)'),
  ('COc1cc(OC)c(-c2oc3ccccc3c(=O)c2O)c(OC)c1', '17.3 µM (inactive)');

###

tested on: NCI-H226; test: NCI tumour cell line growth inhibition, 48 h
The source made the active and inactive calls. Cut-off read from the data, not from the text of the source: active = GI50 up to about 1.1 µM and inactive = higher.
Reported property: GI50

INSERT INTO measurements (compound, reported_property, result) VALUES
  ('CC1(C)COCN1COC1CCCCC1', 'GI50', '> 100 µM (inactive)'),
  ('COC(=O)Cc1cc(O)c2c(c1O)C(=O)c1ccccc1C2=O', 'GI50', '92.3 µM (inactive)'),
  ('O=C1/C(=C\c2ccc(-c3ccc(Cl)cc3Cl)o2)SC2NC(COc3ccc(Cl)cc3)=NN12 (configuration not stated)', 'GI50', '20.2 µM (inactive)'),
  ('CN1CCN(CCCCN2c3ccccc3Sc3ccc(C(=O)c4ccccc4)cc32)CC1', 'GI50', '1.8 µM (inactive)'),
  ('O=C(Nc1ccn(CCI)c(=O)n1)c1ccccc1', 'GI50', '> 100 µM (inactive)'),
  ('OC1=CN=C(c2ccccc2)Oc2ccccc21', 'GI50', '33 µM (inactive)'),
  ('Cc1cc(N(CCC#N)CCC#N)ccc1C(/N=N/c1ccccc1)=N\NC(=O)c1ccccc1', 'GI50', '43.4 µM (inactive)'),
  ('Cc1cc(N(CCC#N)CCC#N)ccc1/C=C1\N=C(c2cc([N+](=O)[O-])ccc2Cl)N(c2cccc(Cl)c2)C1=O', 'GI50', '> 100 µM (inactive)'),
  ('CCOC(=O)CCn1ncc(Cl)c(Cl)c1=O', 'GI50', '10.9 µM (inactive)'),
  ('Sc1nnc(-c2ccnc(-c3nnc(S)[nH]3)c2)[nH]1', 'GI50', '> 100 µM (inactive)'),
  ('C[C@]12CCC(=O)O[C@H]1CCCCO2', 'GI50', '> 100 µM (inactive)'),
  ('N#C[C@H]1C(=O)C(c2nc3ccccc3[nH]2)S[C@H]1c1ccccc1 (some centres not stated)', 'GI50', '85.3 µM (inactive)'),
  ('CC1=C(C(=O)OCCO[N+](=O)[O-])C(c2cccc([N+](=O)[O-])c2)C(C(=O)OC(C)C)=C(C)N1 (configuration not stated)', 'GI50', '8.95 µM (inactive)'),
  ('CCOC(=O)C(NC(=O)c1ccccc1)(Nc1ccc(S(=O)(=O)Nc2ncccn2)cc1)C(F)(F)F (configuration not stated)', 'GI50', '> 100 µM (inactive)'),
  ('O=C1Nc2ccccc2C(=O)O/C(Cc2ccccc2)=N\c2ccccc21', 'GI50', '> 100 µM (inactive)'),
  ('CCSc1n/c(=C\c2ccc(N(C)C)cc2)c2nnnn12', 'GI50', '> 100 µM (inactive)'),
  ('CCOc1ccc(Nc2nc(N)nc(N)c2N=O)cc1', 'GI50', '39.6 µM (inactive)'),
  ('CN(/N=C/c1ccccn1)C1=NCCN1', 'GI50', '> 100 µM (inactive)'),
  ('COc1ccc(/C=c2/sc3n(c2=O)NC(c2ccc(Cl)cc2)NN=3)cc1 (configuration not stated)', 'GI50', '> 100 µM (inactive)'),
  ('S=c1sc2c(s1)SC(c1ccccc1)CS2 (configuration not stated)', 'GI50', '> 100 µM (inactive)'),
  ('COC(=O)c1cc(C#N)[nH]c1-c1cccs1', 'GI50', '> 100 µM (inactive)'),
  ('COC(=O)C12C3C4C5C3(C#N)C1C5(C(=O)OC)C42C(=O)N(C(C)C)C(C)C (configuration not stated)', 'GI50', '> 100 µM (inactive)'),
  ('Cn1c(N(CCO)CCO)cnc1[N+](=O)[O-]', 'GI50', '> 100 µM (inactive)'),
  ('O=C(O)C1CCCCC1c1c2ccc(=O)c(O)c-2oc2c(O)c(O)ccc12 (configuration not stated)', 'GI50', '12.1 µM (inactive)'),
  ('O=C(NC12CC3CC(CC(C3)C1)C2)C(=O)c1c[nH]c2ccc(Br)cc12', 'GI50', '20.2 µM (inactive)'),
  ('CCOC(=O)C1=C(C)N(Cc2ccc(Cl)cc2Cl)C2(O)C(OC)CC(=O)C3C(=O)N(c4ccccc4)C(=O)C132 (configuration not stated)', 'GI50', '3.33 µM (inactive)'),
  ('NCCCCN(CCCN)/[N+]([O-])=N\O', 'GI50', '> 100 µM (inactive)'),
  ('CCCNC(=O)Cn1c(-c2ccccc2)cc2ccccc21', 'GI50', '> 100 µM (inactive)'),
  ('SC1CCCN(Cc2ccccc2)C1 (configuration not stated)', 'GI50', '> 100 µM (inactive)'),
  ('O=P1(O)c2ccccc2CCc2ccccc21', 'GI50', '> 100 µM (inactive)'),
  ('N#CC(c1ccnc(Cl)n1)c1nc2ccccc2s1 (configuration not stated)', 'GI50', '3.76 µM (inactive)'),
  ('CC1(C)OCC(CO)(CO)CO1', 'GI50', '> 100 µM (inactive)');
